assay-notes: blood-stage malaria parasite viability loss – strain 3D7, DAPI fluorescence, 100 nL, primary screen (AID 1184);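 also: parasites grown inside human red blood cells in medium with human serum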
conditions-used: P. falciparum 3D7 growth, 3 d, higher = more signal
The label depends only on z-score: YES if it is at least -1, NO if it is smaller.

{"columns": ["molecule", "group-label"],
 "data": [
  ["C[C@@H]1ON(c2ccccc2)[C@H](c2ccccc2)[C@H]1C(=O)O", "YES"],
  ["COc1cc(C(O)C2C=CC3C(=O)N(c4ccccc4)C(=O)C3N2Nc2ccccc2)cc(OC)c1OC (configuration not stated)", "YES"],
  ["CC(C)(C)OC(=O)CC[C@]1(C(=O)NCC(O)CO)N=C(c2ccc(OCCCO)cc2)O[C@H]1c1ccccc1N=[N+]=[N-] (some centres not stated)", "NO"],
  ["CO[C@H]1O[C@H](CO)[C@@H](OC(=O)Nc2ccccc2-c2ccccc2)[C@H](OC(=O)Nc2ccccc2)[C@H]1OC(=O)Nc1ccccc1", "NO"],
  ["C[C@@H]1ON(c2ccc(I)cc2)[C@H](c2cccc(NC(=O)OCC3c4ccccc4-c4ccccc43)c2)[C@H]1C(=O)N1C(=O)OC[C@H]1Cc1ccccc1", "NO"],
  ["COc1cc(CO)cc(I)c1O[C@H]1C=C(C(=O)NCCO)C[C@@H](NC2CCCCCC2)[C@@H]1O", "NO"],
  ["C=CCOC(=O)[C@@H]1[C@H]2C(=O)O[C@H](c3ccccc3)[C@H](c3ccccc3)N2[C@H](c2ccc(OCCOC(=O)[C@H]3C[C@H]4C(=O)N[C@@H](CCCCN(C)C)C(=O)N4[C@H]3c3ccc(O)cc3)cc2)[C@@]12C(=O)Nc1ccc(I)cc12", "NO"]
]}
